molecular target: Recombinant human IL-1β (BioLegend 579404) (human, UniProt P01584 117-269); assay: cell-based or functional assay
Starred links: 1 amine or outer side, 2 acyl side, 3 side chain; linkers in the order of their positions; H or OH if unused. Non-standard residues stand in square brackets, D forms with d. dProc3CH24Pal = (2R,3S)-3-(4-pyridylmethyl)pyrrolidine-2-carboxylic acid, O=C([C@H]1[C@@H](Cc2ccncc2)CCN1[*:1])[*:2]; RbOH4Pal = (2S,3R)-2-amino-3-hydroxy-3-(4-pyridyl)propanoic acid, O=C([C@@H](N[*:1])[C@H](O[*:3])c1ccncc1)[*:2]; Trp(4-Cl)(βS-Me) = C[C@@H](c1c[nH]c2cccc(Cl)c12)[C@H](N)C(=O)O; dPro(4R-(4-pyridylmethyl)) = O=C(O)[C@H]1C[C@@H](Cc2ccncc2)CN1; Trp(βS-Me,4-F) = C[C@@H](c1c[nH]c2cccc(F)c12)[C@H](N)C(=O)O; Bip(4'-COOH) = N[C@@H](Cc1ccc(-c2ccc(C(=O)O)cc2)cc1)C(=O)O; dPro(4R-Bzl(4-F)) = O=C(O)[C@H]1C[C@@H](Cc2ccc(F)cc2)CN1; Ala(pyrimidin-5-yl) = N[C@@H](Cc1cncnc1)C(=O)O; Phe(4-COOH) = N[C@@H](Cc1ccc(C(=O)O)cc1)C(=O)O; Pro(cis-4-F) = O=C(O)[C@@H]1C[C@H](F)CN1; d(αMeD) = C[C@@](N)(CC(=O)O)C(=O)O; 4Pal = N[C@@H](Cc1ccncc1)C(=O)O; aThr = C[C@H](O)[C@H](N)C(=O)O; Dab = NCC[C@H](N)C(=O)O; Aib = CC(C)(N)C(=O)O
READOUT TYPE: MRC5 IC50 (nM)

[
  {
    "BINDER": "cyclo([Bip(4'-COOH)][4Pal][Phe(4-COOH)]G[Pro(cis-4-F)][Trp(4-Cl)(βS-Me)][Aib]SW[d(αMeD)][aThr]Q[Dab]G[dPro(4R-(4-pyridylmethyl))]) (ring closure inferred) [SEQ ID NO 358]",
    "MRC5 IC50, nM": 0.013
  },
  {
    "BINDER": "cyclo([Bip(4'-COOH)][4Pal][Phe(4-COOH)]G[Pro(cis-4-F)][Trp(βS-Me,4-F)][Aib]SW[d(αMeD)][aThr]Q[Dab]G[dPro(4R-(4-pyridylmethyl))]) (ring closure inferred) [SEQ ID NO 359]",
    "MRC5 IC50, nM": 0.011
  },
  {
    "BINDER": "cyclo([Bip(4'-COOH)][4Pal][Phe(4-COOH)]G[Pro(cis-4-F)][Trp(βS-Me,4-F)][Aib]SW[Aib][RbOH4Pal]Q[Dab]G[dPro(4R-Bzl(4-F))]) (ring closure inferred) [SEQ ID NO 273]",
    "MRC5 IC50, nM": 0.013
  },
  {
    "BINDER": "cyclo([Bip(4'-COOH)][4Pal][Phe(4-COOH)]G[Pro(cis-4-F)][Trp(βS-Me,4-F)][Aib]SW[Aib][Ala(pyrimidin-5-yl)]Q[Dab]G[dProc3CH24Pal]) (ring closure inferred) [SEQ ID NO 326]",
    "MRC5 IC50, nM": 0.011
  }
]

Sourced from patent US20260242419A1
